# Subject of test: UniProt P41145
# Test: Filtration binding assay: kappa opioid receptor
Readout type: pIC50
pIC50 here: minus log base 10 of the concentration, concentration in moles per litre.

O=C1N(C[C@@H](O)CN2CCN(c3cccc(C(F)(F)F)c3)CC2)CN(c2ccc(F)cc2)C12CCN(C1Cc3cccc4cccc1c34)CC2 (mixture of isomers): 6.41

Query compound follows.
# input Request the reported pIC50 associated with Cc1cccc(CNC[C@H](O)CN2CN(c3ccc(F)cc3)C3(CCN(CC4CCCCCCC4)CC3)C2=O)c1
# output 6.55

----------
# Subject of test: kappa opioid receptor (Homo sapiens, UniProt P41145)
# Sequence (P41145 whole entry): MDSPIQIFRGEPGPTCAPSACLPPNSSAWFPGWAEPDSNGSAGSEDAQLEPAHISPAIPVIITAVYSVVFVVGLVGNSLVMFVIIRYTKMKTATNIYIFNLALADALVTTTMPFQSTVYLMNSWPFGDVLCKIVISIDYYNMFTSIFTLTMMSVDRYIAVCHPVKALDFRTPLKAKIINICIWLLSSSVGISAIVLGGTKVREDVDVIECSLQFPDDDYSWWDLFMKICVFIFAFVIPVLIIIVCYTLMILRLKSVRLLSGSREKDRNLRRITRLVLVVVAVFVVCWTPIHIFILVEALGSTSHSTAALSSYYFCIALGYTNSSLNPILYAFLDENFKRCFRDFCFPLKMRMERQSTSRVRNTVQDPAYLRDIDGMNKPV
Counter-ions that a name gives are not always drawn.
Quick rule for you: Ki under 200 nM gets TRUE, anything else gets FALSE.

CNCCCNCC(O)CN1CN(c2ccc(F)cc2)C2(CCN(CC3CCC4CC3C4(C)C)CC2)C1=O (mixture of isomers) [compound 664]: FALSE
Cc1cccc2cccc(CN3CCC4(CC3)C(=O)N(C[C@H](O)CNCCCNC(=O)OC(C)(C)C)CN4c3ccc(F)cc3)c12 [compound 665]: FALSE
NC[C@@H](O)CN1CN(c2ccc(F)cc2)C2(CCN(CC3CCCCCCC3)CC2)C1=O [Compound #620]: TRUE

# input Please check: Ki for O=C1N(C[C@H](O)CN2C(CO)C(O)C(O)C2CO)CN(c2ccc(F)cc2)C12CCN(C1CCCCCCC1)CC2 (stereo partly drawn) [compound 688] , strictly under 200 nM or not?
# output TRUE

# input Please check: Ki for Cc1cccc2cccc(CN3CCC4(CC3)C(=O)N(CC(O)CN3CCC(N(C)C(=O)OC(C)(C)C)C3)CN4c3ccc(F)cc3)c12 (stereo not drawn) [compound 721] , strictly under 200 nM or not?
# output TRUE

# input Please check: Ki for NC[C@@H](O)CN1CN(c2ccccc2)C2(CCN([C@H]3CC[C@@H]4CCCc5cccc3c54)CC2)C1=O [Compound #640, dihydrochloride] , strictly under 200 nM or not?
# output FALSE

# input Please check: Ki for CC1(C)[C@H]2CC=C(CN3CCC4(CC3)C(=O)N(C[C@@H]3CO3)CN4c3ccc(F)cc3)[C@@H]1C2 [compound 727] , strictly under 200 nM or not?
# output FALSE

# input Please check: Ki for CC1(C)[C@H]2CC=C(CN3CCC4(CC3)C(=O)N(C[C@@H](O)CN)CN4c3ccc(F)cc3)[C@@H]1C2 [compound 619] , strictly under 200 nM or not?
# output TRUE

# input Please check: Ki for CNCCCNC[C@@H](O)CN1CN(c2ccc(F)cc2)C2(CCN(Cc3cccc4cccc(C)c34)CC2)C1=O [Compound #656] , strictly under 200 nM or not?
# output FALSE
